target: peptide of Example 1 (influenza virus); assay: SPR, mAb captured on anti-mouse Fc, peptide injected; average
Listed next: entries and their corresponding Kd.
readout.kind: Kd

binder	readout.kind	result
F211-10A9 (antibody, V domains shown) VL: DIVMTQSPSSLAMSVGQKVTMSCKSSQSLLNSDTQKNFLAWYQQKPGQSPKILVYFASTKESGVPDRFIGSGSGTDFTLTITSVQAEDLADYFCQQYYSIPLTFGAGTKLELK VH: QIQLQQSGPELVKPGAPVKISCKASGYTFTDYYIHWVNQRPGQGLEWIGYIYPGNGHTVYNQKFKVRATLTADNPSSTAYLQLNSLTSEDSGVYFCAYDLFNYWGQGTLVTVSA	Kd	0.338 nM
F211-11H12 (antibody, V domains shown) VL: DIVMSQSPSSLAVSVGEKVTMSCKSSQSLLNSRNQKNHLAWYQQKPGQSPKLLIYWASTRESGVPDRFTGDGSGTDFTLTISSVKAEDLAVYYCQQYYTYRTFGGGTKLEIK VH: DVQLQESGPGLVKPSQSLSLTCSVTGYSITSDYYWNWIRQFPGNKLEWMAYIGYDGTKNYNPSLKNRISITRDTSKNQFFLKLNSVTTDDTATYYCTRDRANWDDYFDYWGQGTTLTVSS	Kd	0.465 nM
CHO-10A9 (antibody, V domains shown) VL: DIVMTQSPSSLAMSVGQKVTMSCKSSQSLLNSDTQKNFLAWYQQKPGQSPKILVYFASTKESGVPDRFIGSGSGTDFTLTITSVQAEDLADYFCQQYYSIPLTFGAGTKLELK VH: QIQLQQSGPELVKPGAPVKISCKASGYTFTDYYIHWVNQRPGQGLEWIGYIYPGNGHTVYNQKFKVRATLTADNPSSTAYLQLNSLTSEDSGVYFCAYDLFNYWGQGTLVTVSA	Kd	0.365 nM
CHO-11H12 (antibody, V domains shown) VL: DIVMSQSPSSLAVSVGEKVTMSCKSSQSLLNSRNQKNHLAWYQQKPGQSPKLLIYWASTRESGVPDRFTGDGSGTDFTLTISSVKAEDLAVYYCQQYYTYRTFGGGTKLEIK VH: DVQLQESGPGLVKPSQSLSLTCSVTGYSITSDYYWNWIRQFPGNKLEWMAYIGYDGTKNYNPSLKNRISITRDTSKNQFFLKLNSVTTDDTATYYCTRDRANWDDYFDYWGQGTTLTVSS	Kd	0.639 nM
